test-context: human, serum;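 further: human clinical chemistry: moderate when serum ALT or AST reaches 6× upper normal limit or alkaline phosphatase 1.7×, value counts indexed literature references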
test-readout: Hepatotoxicity (moderate)
The answer should be a number; do not append a unit.

Examples from the recorded data:
INSERT INTO measurements (compound, test_readout, quantitative_readout) VALUES
  ('CC1=C(CC(=O)O)c2cc(F)ccc2/C1=C\c1ccc([S+](C)[O-])cc1 (stereo not drawn)', 'Hepatotoxicity (moderate)', 25),
  ('O=C1c2cccc(O)c2C(=O)c2c(O)cccc21 [DANTHRON]', 'Hepatotoxicity (moderate)', 1),
  ('COc1ccc(NS(=O)(=O)c2ccc(N)cc2)nn1 [SULFAMETHOXYPYRIDAZINE]', 'Hepatotoxicity (moderate)', 0),
  ('O=C(O)/C=C/C(=O)O [FUMARIC ACID]', 'Hepatotoxicity (moderate)', 6),
  ('CC1CS(=O)(=O)CCN1/N=C/c1ccc([N+](=O)[O-])o1 (stereo not drawn) [NIFURTIMOX]', 'Hepatotoxicity (moderate)', 0);

// Hepatotoxicity (moderate) value for NC(=O)CC[C@@H]1NC(=O)[C@H](Cc2ccccc2)NC(=O)[C@H](Cc2ccc(O)cc2)NC(=O)CCSSC[C@@H](C(=O)N2CCC[C@H]2C(=O)N[C@H](CCCN=C(N)N)C(=O)NCC(N)=O)NC(=O)[C@H](CC(N)=O)NC1=O [DESMOPRESSIN] : 2

Field Hepatotoxicity (moderate) (entry Nc1nc(Cl)nc2c1ncn2[C@H]1C[C@H](O)[C@@H](CO)O1 [CLADRIBINE] ) reads 4

Input Cc1cnc(NC(=O)C2=C(O)c3ccccc3S(=O)(=O)N2C)s1 [MELOXICAM] . Output Hepatotoxicity (moderate): 6
